quantity name: melting point

> print(dat)
                                 cpd.smiles  quantity.name  observed.result
1     O=c1c(Cn2cc(-c3ccccc3)nn2)coc2ccccc12  melting point    154 to 155 °C
2     O=c1c(Cn2cc(CC3CCCCC3)nn2)coc2ccccc12  melting point    133 to 134 °C
3  O=c1c(Cn2cc(CCCCCCCCCCCCCCCO)nn2)coc2ccccc12  melting point    123 to 124 °C
4       O=c1c(Cn2cc(C3CCCC3)nn2)coc2ccccc12  melting point    157 to 158 °C
5  CCCCCOc1ccc(-c2cn(Cc3coc4ccccc4c3=O)nn2)cc1  melting point    154 to 155 °C
6            CCCCc1cn(Cc2coc3ccccc3c2=O)nn1  melting point      87 to 88 °C
